Experimental System: Galectin-1 (Homo sapiens, UniProt P09382)
Sequence (P09382 whole entry): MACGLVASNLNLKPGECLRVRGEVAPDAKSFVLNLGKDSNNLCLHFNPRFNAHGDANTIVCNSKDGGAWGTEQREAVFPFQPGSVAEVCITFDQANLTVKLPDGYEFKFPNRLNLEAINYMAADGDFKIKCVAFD
Measurement Notes: fluorescence anisotropy assay: The affinity of Example 1-33 for galectins were determined by a fluorescence anisotropy assay where the compound was used as an inhibitor of the interaction between galectin and a fluorescein tagged saccharide probe as described Sörme, P., Kahl-Knutsson, B., Huflejt, M., Nilsson, U. J., and Leffler H. (2004) Fluorescence polarization as an analytical tool to …
Parameter: Kd (nM)
Output spec: scalar in nM, unitless text.

**Q:** Give Kd; test system Galectin-1 (Homo sapiens, UniProt P09382); compound "OC[C@H]1O[C@H](Sc2ccc(Cl)c(Cl)c2)[C@H](O)[C@@H](n2cc(-c3nc(O)cs3)nn2)[C@H]1O"
**A:** 650
